Quick record: MIC, S. pyogenes 0542.

The examples below pair each entry with its known result.
compound	MIC
CC[C@H]1OC(=O)[C@H](C)[C@@H](O[C@H]2C[C@@](C)(OC)[C@@H](OC(=O)CCN3CCN(CC#Cc4ccc5c(c4)c(=O)c(C(=O)O)cn5CC)CC3)[C@H](C)O2)[C@H](C)[C@@H](O[C@@H]2O[C@H](C)C[C@H](N(C)C)[C@H]2O)[C@](C)(O)C[C@@H](C)CN(C)[C@H](C)[C@@H](OC)[C@]1(C)O	≤ 1 µg/mL
CC[C@H]1OC(=O)[C@H](C)[C@@H](OC2C[C@@](C)(OC)[C@@H](OC(=O)CCNCCOCC#Cc3ccc4c(c3)c(=O)c(C(=O)O)cn4CC)[C@H](C)O2)[C@H](C)[C@@H](OC2O[C@H](C)C[C@H](N(C)C)[C@H]2O)[C@](C)(O)C[C@@H](C)CN(C)[C@H](C)[C@@H](OC)[C@]1(C)O (stereo partly drawn)	≤ 1 µg/mL

Moving on to another compound below.
Under S. pyogenes 0542: report MIC of CC[C@H]1OC(=O)[C@H](C)[C@@H](O[C@H]2C[C@@](C)(OC)[C@@H](OC(=O)CCOCCOCCNc3cc4c5c(c3)c(=O)c(C(=O)O)cn5CCC4)[C@H](C)O2)[C@H](C)[C@@H](O[C@@H]2O[C@H](C)C[C@H](N(C)C)[C@H]2O)[C@](C)(OC)C[C@@H](C)C(=O)[C@H](C)[C@@H](O)[C@]1(C)O .
≤ 1 µg/mL

---

system: M. catarrhalis ATCC 0324
Below, each of the compounds is paired with its reported MIC value.

compound	endpoint	reported value
CC[C@H]1OC(=O)[C@H](C)[C@@H](OC2C[C@@](C)(OC)[C@@H](OC(=O)CCOCCOCCOc3ccc4c(=O)c(C(=O)O)cn(C5CC5)c4c3)[C@H](C)O2)[C@H](C)[C@@H](O[C@@H]2O[C@H](C)C[C@H](N(C)C)[C@H]2O)[C@](C)(OC)C[C@@H](C)C(=O)[C@H](C)[C@@H](O)[C@]1(C)O (some centres unmarked)	MIC	≤ 2 µg/mL

Moving on to another compound below.
Under M. catarrhalis ATCC 0324: report MIC of CC[C@H]1OC(=O)[C@H](C)[C@@H](OC2C[C@@](C)(OC)[C@@H](OC(=O)CCNCCOCCCc3ccc4c(c3)c(=O)c(C(=O)O)cn4CC)[C@H](C)O2)[C@H](C)[C@@H](OC2O[C@H](C)C[C@H](N(C)C)[C@H]2O)[C@](C)(O)C[C@@H](C)CN(C)[C@H](C)[C@@H](OC)[C@]1(C)O (some centres unmarked) .
≤ 2 µg/mL

---

system: M. catarrhalis ATCC 0324
endpoint: MIC

compound	reported value
CC[C@H]1OC(=O)[C@H](C)[C@@H](OC2C[C@@](C)(OC)[C@@H](OC(=O)CCNCCOCC#Cc3ccc4c(c3)c(=O)c(C(=O)O)cn4CC)[C@H](C)O2)[C@H](C)[C@@H](OC2O[C@H](C)C[C@H](N(C)C)[C@H]2O)[C@](C)(O)C[C@@H](C)CN(C)[C@H](C)[C@@H](OC)[C@]1(C)O (some centres unmarked)	≤ 2 µg/mL

Moving on to another compound below.
Under M. catarrhalis ATCC 0324: report MIC of CC[C@H]1OC(=O)[C@H](C)[C@@H](O[C@H]2C[C@@](C)(OC)[C@@H](OC(=O)CCOCCOCCNc3cc4c5c(c3)c(=O)c(C(=O)O)cn5CCC4)[C@H](C)O2)[C@H](C)[C@@H](O[C@@H]2O[C@H](C)C[C@H](N(C)C)[C@H]2O)[C@](C)(OC)C[C@@H](C)C(=O)[C@H](C)[C@@H](O)[C@]1(C)O .
≤ 2 µg/mL

Origin of values: patent US20080255060A1
